- Assay text: Cytotoxicity detection (CellTiter-Glo)
- Type: cell-based
- Experimental context: human, HepG2.2.15 cells, highest concentration 150 μM
Assay readout: CC50 at 4 days (µM)
Number only, in µM; omit the unit.

{"Compound": "CCOC(=O)C1=C(CN2CC(O)C(F)(F)C2)NC(c2nccs2)=N[C@H]1c1ccc(F)cc1Cl (stereo partly drawn)", "Value unit": "µM", "CC50 at 4 days": 73.5}
{"Compound": "CCOC(=O)C1=C(CN2CC(COCC(=O)O)CC(F)(F)C2)NC(c2nccs2)=N[C@H]1c1ccc(F)cc1Cl (stereo partly drawn)", "Value unit": "µM", "CC50 at 4 days": 122}

Now examine the next entry.
Q: // Input: `CCOC(=O)C1=C(CN2C[C@@H](O)[C@H](F)C2)NC(c2nccs2)=N[C@H]1c1ccc(F)cc1Cl` . Output its CC50 at 4 days only.
Ans: 79.6

* * *

- Assay text: In vivo pharmacokinetics (PK) in Beagle dogs
- Set-up: species or system male Beagle dogs
- Experimental context: male, plasma, po, 2.5 mg/kg; Beagle dog, by gavage, 2.50 mg/kg; read-out: bioavailability (F)
- Procedure: The test compounds were administrated to male Beagle dogs by intravenous (iv) and by gavage (po), respectively, the doses of the iv and po administration were respectively 0.5 mg/kg and 2.5 mg/kg, the solvent system for iv administration was 5% DMSO:5% solutol:90% physiological saline, and the solvent system for po administration was 0.5% MC. Blood was collected at multiple time points after iv administration and po administration for the PK study. […]
Assay readout: bioavailability (%)
Number only, in %; omit the unit.

Q: // Input: COC(=O)C1=C(CN2CCO[C@H](/C=C/C(=O)O)C2)NC(c2nccs2)=N[C@H]1c1ccc(F)cc1Cl [10-227 of Example 27] . Output its bioavailability only.
Ans: 75.9

* * *

- Assay text: In vivo pharmacokinetics (PK) in cynomolgus macaques
- Parameters: species or system male cynomolgus macaques
- Experimental context: male, cynomolgus monkey, 2.5 mg/kg; cynomolgus macaque, po, 2.50 mg/kg, plasma
Assay readout: AUC(0-inf) (ng·h/mL)
Number only, in ng·h/mL; omit the unit.

Q: // Input: `COC(=O)C1=C(CN2CCO[C@H](/C=C/C(=O)O)C2)NC(c2nccs2)=N[C@H]1c1ccc(F)cc1Cl` . Output its AUC(0-inf) only.
Ans: 4570

* * *

- Assay text: In vivo pharmacokinetics (PK) in rats
- Experimental context: male, SD; rat, iv, 1.00 mg/kg, plasma
Assay readout: Cmax (ng/mL)
Number only, in ng/mL; omit the unit.

{"Molecule": "CCOC(=O)C1=C(CN2CCO[C@H](CCC(=O)O)C2)NC(c2nccs2)=N[C@H]1c1ccc(F)cc1Cl [Control compound 2, reference compound]", "Cmax [ng/mL]": 2470}

Q: // Input: CCOC(=O)C1=C(CN2CCO[C@H](/C=C/C(=O)O)C2)NC(c2nccs2)=N[C@H]1c1ccc(F)cc1Cl [10-226 of Example 25] . Output its Cmax only.
Ans: 2890

* * *

- Assay text: Cytotoxicity detection (CellTiter-Glo)
- Assay type: cell-based
- Experimental context: human, HepG2.2.15 cells, highest concentration 150 μM
Assay readout: CC50 at 4 days

Study these solved cases before continuing.
{"Molecule": "CCOC(=O)C1=C(CN2CCC(O)C(F)(F)C2)NC(c2nccs2)=NC1c1ccc(F)cc1Cl (stereo not drawn) [10-88 of Example 1]", "CC50 at 4 days": "61.1 µM"}
{"Molecule": "COC(=O)C1=C(CN2CCO[C@H](/C=C/C(=O)O)C2)NC(c2nccs2)=N[C@H]1c1ccc(F)c(F)c1Cl [10-237 of Example 30]", "CC50 at 4 days": "> 150 µM"}
{"Molecule": "COC(=O)C1=C(CN2CCO[C@H](/C=C/C(=O)O)C2)NC(c2nccs2)=N[C@H]1c1ccc(F)cc1Br [10-229 of Example 28]", "CC50 at 4 days": "> 150 µM"}
{"Molecule": "CCOC(=O)C1=C(CN2CCOC(/C=C/C(=O)O)C2)NC(c2nccs2)=N[C@H]1c1ccc(F)cc1Cl (stereo partly drawn) [10-180 of Example 14]", "CC50 at 4 days": "> 150 µM"}
{"Molecule": "COC(=O)C1=C(CN2CCO[C@H](/C=C/C(=O)O)C2)NC(c2nccs2)=N[C@H]1c1cccc(F)c1Cl [10-240 of Example 33]", "CC50 at 4 days": "> 150 µM"}

Now examine the next entry.
Q: // Input: COC(=O)C1=C(CN2CCO[C@H](/C=C/C(=O)O)C2)NC(c2nccs2)=N[C@H]1c1ccc(F)c(F)c1C [10-239 of Example 32] . Output its CC50 at 4 days only.
Ans: > 150 µM
